Give measured protein stability index for each item. Keep answers brief.
B1: TRIM9 (parent)
chain: CVQCKMPVCYQCLEEGKHSSHEVK

Variants of: B1
Measurement notes: protein stability index of a GFP-peptide fusion (GPS, HEK-293T) (PSI 1-6); higher = more stable;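 further: lentivirally expressed fusions sorted by FACS into six bins by GFP to DsRed ratio, PSI derived from sequencing read proportions per bin multiplied by bin number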
Condition context: c terminus: a fixed tail appended

{"Monomer sequence": "CVKCKMPVCYQCLEEGKHSSHEVK", "protein stability index": 3.73}
{"Monomer sequence": "CVQCKMPVCYQCLEEGVHSSHEVK", "protein stability index": 3.81}

Hey, quick one: what's protein stability index for each of these?
1. CVQCKMPVCYQCLEFGKHSSHEVK
2. CVQCKMPTCYQCLEEGKHSSHEVK

Outgoing:
[2.82, 3.79]

Hey, quick one: what's protein stability index for each of these?
1. CVQFKMPVCYQCLEEGKHSSHEVK
2. CVQCKMPVCYQCLEEGKHRSHEVK
3. CVQCKIPVCYQCLEEGKHSSHEVK

Outgoing:
2.66
3.73
3.4

Hey, quick one: what's protein stability index for each of these?
1. CVQCKMPVCYQCLEEGKHSSHAVK
2. CAQCKMPVCYQCLEEGKHSSHEVK
3. CVQCKMPVCQQCLEEGKHSSHEVK
4. CVQCKMPVCYQCLEEGKHSPHEVK
5. CVQCKMPVCYQCLEEKKHSSHEVK
6. CVQCPMPVCYQCLEEGKHSSHEVK

Outgoing:
1. 3.57
2. 3.97
3. 4.16
4. 4.13
5. 3.57
6. 3.52

Hey, quick one: what's protein stability index for each of these?
1. CVQCKMPVCYQCLEEGKHSSNEVK
2. CVQCKMPVMYQCLEEGKHSSHEVK

Outgoing:
1. 3.75
2. 3.64
